molecular target: Wnt-responsive promoter (TCF/LEF); assay: Wnt-dependent luciferase reporter assay
Where a SMILES comes first, the peptide text is derived from it. The star is where a group is joined. Bn = c1ccc(C*)cc1
parameter measured: EC50

See these solved cases before continuing.
- compound: "CC[C@H](C)[C@H](NC(=O)[C@H](CC(C)C)NC(=O)C(C)(Cc1ccccc1)NC(=O)[C@H](Cc1c[nH]c2ccccc12)NC(=O)[C@@H](N)CCSC)C(=O)N[C@@H](CS)C(=O)N[C@@H](Cc1ccccc1)C(=O)N[C@@H](Cc1c[nH]c2ccccc12)C(=O)NCC(=O)O (some centres unmarked) [compound 131] (HELM PEPTIDE1{M.W.[CC(Cc1ccccc1)(N[*:1])C(=O)[*:2]].L.I.C.F.W.G}$$$$V2.0)"
  EC50: "7.5 to 15 µM"
- compound: "CC[C@H](C)[C@@H]1NC(=O)[C@H](CC(C)C)NC(=O)[C@H](Cc2ccccc2)NC(=O)[C@H](Cc2c[nH]c3ccccc23)NC(=O)[C@H](CCSC)NC(=O)CCCCCNC(=O)C[C@@H](C(=O)O)NC(=O)[C@H](Cc2c[nH]c3ccccc23)NC(=O)[C@H](C)NC(=O)[C@H](CS)NC1=O [compound 192] (HELM PEPTIDE1{[O=C(CCCCCN[*:1])[*:2]].M.W.F.L.I.C.A.W.D}$PEPTIDE1,PEPTIDE1,1:R1-10:R3$$$V2.0)"
  EC50: "< 7.5 µM"

# EC50 lookup, item CC[C@H](C)[C@H](NC(=O)[C@H](CC(C)C)NC(=O)[C@@H](NC(=O)[C@H](Cc1c[nH]c2ccccc12)NC(=O)[C@H](CCSC)NC(=O)[C@H](CCCNC(=N)N)NC(=O)[C@H](CO)NC(=O)[C@@H](N)CCSC)[C@@H](C)CC)C(=O)N[C@@H](CO)C(=O)N[C@@H](Cc1ccccc1)C(=O)N[C@@H](Cc1c[nH]c2ccccc12)C(=O)NCC(=O)O [compound 51] (H-MSRMWILISFWG-OH)
7.5 to 15 µM

Sample CC[C@H](C)[C@@H]1NC(=O)[C@H](CC(C)C)NC(=O)[C@H](Cc2ccccc2)NC(=O)[C@H](Cc2c[nH]c3ccccc23)NC(=O)[C@@H](NC(C)=O)CCCCNC(=O)CC[C@@H](C(=O)O)NC(=O)[C@H](Cc2c[nH]c3ccccc23)NC(=O)[C@H](Cc2ccccc2)NC(=O)[C@H](C)NC1=O [compound 200] (HELM PEPTIDE1{[ac].K.W.F.L.I.A.F.W.E}$PEPTIDE1,PEPTIDE1,2:R3-10:R3$$$V2.0) — what was its EC50?
< 7.5 µM

What does the record list as EC50 for CC[C@H](C)[C@H](NC(=O)[C@H](CC(C)C)NC(=O)[C@H](Cc1ccccc1)NC(=O)[C@@H](N)Cc1c[nH]c2ccccc12)C(=O)N[C@@H](CO)C(=O)N[C@@H](Cc1ccc(O)cc1)C(=O)N[C@@H](Cc1c[nH]c2ccccc12)C(=O)O [compound 109] (H-WFLISYW-OH) ?
7.5 to 15 µM

What does the record list as EC50 for CC[C@H](C)[C@H](NC(=O)[C@H](CC(C)C)NC(=O)[C@H](Cc1ccccc1)NC(=O)[C@H](Cc1c[nH]c2ccccc12)NC(=O)[C@H](CCSC)NC(=O)[C@H](CCCNC(=N)N)NC(=O)[C@H](CO)NC(=O)[C@@H](N)CCSC)C(=O)N[C@@H](CO)C(=O)N[C@@H](Cc1ccccc1)C(=O)N[C@@H](Cc1c[nH]c2ccccc12)C(=O)N[C@@H](CCC(=O)O)C(=O)NCC(=O)O [compound 57] (H-MSRMWFLISFWEG-OH) ?
< 7.5 µM

Data request, read-out EC50, for CC[C@H](C)[C@H](NC(=O)[C@H](CC(C)C)NC(=O)[C@H](Cc1ccccc1)NC(=O)[C@H](Cc1c[nH]c2ccccc12)NC(=O)[C@H](CCCCN)NC(=O)[C@H](CCCNC(=N)N)NC(=O)[C@H](CO)NC(=O)[C@@H](N)Cc1c[nH]c2ccccc12)C(=O)N[C@@H](CO)C(=O)N[C@@H](Cc1ccccc1)C(=O)N[C@@H](Cc1c[nH]c2ccccc12)C(N)=O [compound 90] (H-WSRKWFLISFW-NH2)
> 30 µM

Report EC50 for CC[C@H](C)[C@H](NC(=O)[C@H](CC(C)C)NC(=O)[C@H](Cc1ccccc1)NC(=O)[C@@H](N)Cc1c[nH]c2ccccc12)C(=O)N[C@@H](CO)C(=O)N[C@@H](COCc1ccccc1)C(=O)N[C@@H](Cc1c[nH]c2ccccc12)C(=O)O [compound 101] (H-WFLISS(Bn)W-OH) please.
7.5 to 15 µM

----------
details: % Viability non-Wnt responsive cells
Where a SMILES comes first, the peptide text is derived from it.
parameter measured: viability (%)
Field: numeric (%). Do not append units.

Use these answered entries as a reference point.
- compound: "CC[C@H](C)[C@H](NC(=O)[C@H](CC(C)C)NC(=O)[C@H](Cc1ccccc1)NC(=O)[C@H](Cc1c[nH]c2ccccc12)NC(=O)[C@H](CCSC)NC(C)=O)C(=O)N[C@@H](CS)C(=O)N[C@@H](Cc1ccccc1)C(=O)N[C@@H](Cc1c[nH]c2ccccc12)C(=O)NCCCC(=O)O [compound 197] (HELM PEPTIDE1{[ac].M.W.F.L.I.C.F.W.[O=C(O)CCCN[*:1]]}$$$$V2.0)"
  value measured: 89.8
- compound: "CC[C@H](C)[C@H](NC(=O)[C@H](CC(C)C)NC(=O)[C@H](Cc1ccccc1)NC(=O)[C@H](Cc1c[nH]c2ccccc12)NC(=O)[C@H](CCSC)NC(=O)[C@H](CCCNC(=N)N)NC(=O)[C@H](CO)NC(=O)[C@@H](N)CCSC)C(=O)N[C@@H](CO)C(=O)N[C@@H](Cc1ccccc1)C(=O)N[C@@H](CCCNC(=N)N)C(=O)NCC(=O)O [compound 69] (H-MSRMWFLISFRG-OH)"
  value measured: 99.7
- compound: "CC[C@H](C)[C@H](NC(=O)[C@H](CC(C)C)NC(=O)[C@H](Cc1ccccc1)NC(=O)[C@H](Cc1c[nH]c2ccccc12)NC(C)=O)C(=O)N[C@@H](CS)C(=O)N[C@@H](Cc1ccccc1)C(=O)N[C@@H](Cc1c[nH]c2ccccc12)C(=O)NCC(=O)O [compound 194] (Ac-WFLICFWG-OH)"
  value measured: 106
- compound: "CC[C@H](C)[C@H](NC(=O)[C@H](CC(C)C)NC(=O)[C@@H](NC(=O)[C@H](Cc1c[nH]c2ccccc12)NC(=O)[C@H](CCSC)NC(=O)[C@@H](N)Cc1c[nH]cn1)[C@@H](C)CC)C(=O)N[C@@H](CO)C(=O)N[C@@H](Cc1ccccc1)C(=O)N[C@@H](Cc1c[nH]c2ccccc12)C(=O)NCC(=O)O [compound 123] (H-HMWILISFWG-OH)"
  value measured: 107
- compound: "CCCC[C@@H]1NC(=O)[C@@H](NC(C)=O)CCCCNC(=O)C[C@@H](C(=O)O)NC(=O)[C@H](Cc2c[nH]c3ccccc23)NC(=O)[C@H](C)NC(=O)[C@H](CC)NC(=O)[C@H]([C@@H](C)CC)NC(=O)[C@H](CC(C)C)NC(=O)[C@H](CC2CCCCC2)NC(=O)[C@H](Cc2c[nH]c3ccccc23)NC1=O [compound 215] (HELM PEPTIDE1{[ac].K.[Nle].W.[Cha].L.I.[Abu].A.W.D}$PEPTIDE1,PEPTIDE1,2:R3-11:R3$$$V2.0)"
  value measured: 106

Using the record for CC[C@H](C)[C@H](NC(=O)[C@H](CC(C)C)NC(=O)[C@H](Cc1ccccc1)NC(=O)[C@H](Cc1c[nH]c2ccccc12)NC(=O)[C@@H](N)CCSC)C(=O)N[C@@H](CS)C(=O)N[C@@H](Cc1ccccc1)C(=O)N[C@@H](Cc1c[nH]c2ccccc12)C(=O)NCCCC(=O)O [compound 153] (HELM PEPTIDE1{M.W.F.L.I.C.F.W.[O=C(O)CCCN[*:1]]}$$$$V2.0) , report its viability.
104

Item CCOC[C@H](NC(=O)[C@H](CO)NC(=O)[C@@H](NC(=O)[C@H](CC(C)C)NC(=O)[C@H](Cc1ccccc1)NC(=O)[C@H](Cc1c[nH]c2ccccc12)NC(=O)[C@H](CCSC)NC(=O)[C@H](CCCNC(=N)N)NC(=O)[C@H](CO)NC(=O)[C@@H](N)CCSC)[C@@H](C)CC)C(=O)N[C@@H](Cc1c[nH]c2ccccc12)C(=O)O [compound 105] (H-MSRMWFLISS(Et)W-OH) has what recorded viability?
96.8

For CC[C@H](C)[C@H](NC(=O)[C@H](CC(C)C)NC(=O)[C@@H](NC(=O)[C@H](Cc1c[nH]c2ccccc12)NC(=O)[C@H](CCSC)NC(C)=O)[C@@H](C)CC)C(=O)N[C@@H](CO)C(=O)N[C@@H](Cc1ccccc1)C(=O)N[C@@H](Cc1c[nH]c2ccccc12)C(=O)NCC(=O)OC [compound 222] (HELM PEPTIDE1{[ac].M.W.I.L.I.S.F.W.G.[CO[*:1]]}$$$$V2.0) , what is its reported viability?
98.2

Please give the measured viability for this compound: CC[C@H](C)[C@@H]1NC(=O)[C@H](CC(C)C)NC(=O)[C@H]([C@@H](C)CC)NC(=O)[C@H](Cc2c[nH]c3ccccc23)NC(=O)[C@@H](N)CCCCNC(=O)C[C@@H](C(=O)O)NC(=O)[C@H](Cc2c[nH]c3ccccc23)NC(=O)[C@H](Cc2ccccc2)NC(=O)[C@H](CS)NC1=O [compound 120] (HELM PEPTIDE1{K.W.I.L.I.C.F.W.D}$PEPTIDE1,PEPTIDE1,1:R3-9:R3$$$V2.0)
123

Which value of viability has been reported for CC[C@H](C)[C@H](NC(=O)[C@H](CC(C)C)NC(=O)[C@H](Cc1c[nH]c2ccccc12)NC(=O)[C@H](Cc1c[nH]c2ccccc12)NC(=O)[C@H](CCSC)NC(=O)[C@H](CCCNC(=N)N)NC(=O)[C@H](CO)NC(=O)[C@@H](N)CCSC)C(=O)N[C@@H](CO)C(=O)N[C@@H](Cc1ccccc1)C(=O)N[C@@H](Cc1c[nH]c2ccccc12)C(N)=O [compound 80] (H-MSRMWWLISFW-NH2) in the records?
101

Query (compound): CC[C@H](C)[C@H](NC(=O)[C@H](CC(C)C)NC(=O)[C@H](Cc1ccccc1)NC(=O)[C@H](Cc1c[nH]c2ccccc12)NC(=O)[C@@H](N)CCSC)C(=O)N[C@@H](CO)C(=O)N[C@@H](C)C(=O)N[C@@H](Cc1c[nH]c2ccccc12)C(=O)NCC(=O)O [compound 160] (H-MWFLISAWG-OH) ; field requested: viability
102
